System: Pro. vulgaris GN76**
EXPERIMENT_DESCRIPTION: Antibacterial activity (MIC), agar dilution
Type: cell-based
MEASUREMENT_CONTEXT: Proteus vulgaris, 20 h; Pro. vulgaris GN76, cephalospolinase-producing; 10^6 cells per ml; read-out: MIC
MEASUREMENT_LABEL: MIC (µg/mL)
Give bare numbers, in µg/mL.

Sample records with MIC:
O=C(O)c1cn(-c2ccc(O)cc2)c(-c2ccc(-c3cccs3)cc2)cc1=O = 0.2
CC(=O)Oc1ccc(-n2cc(C(=O)O)c(=O)cc2-c2cc3ccccc3o2)cc1 = 1.56
Cc1cc(O)ccc1-n1cc(C(=O)O)c(=O)cc1-c1ccc(-c2cccs2)cc1 = 0.2

Answer for every listed entry: what is its MIC? The entries follow.
1. O=C(O)c1cn(-c2ccc(O)cc2)c(-c2ccc3ccccc3c2)cc1=O
2. COc1ccc(-c2cc(=O)c(C(=O)O)cn2-c2ccc(O)cc2C)cc1
3. CN(C)c1ccc(-c2cc(=O)c(C(=O)O)cn2-c2ccc(O)cc2)cc1 [drawing 206]
4. Cc1cc(O)ccc1-n1cc(C(=O)O)c(=O)cc1C1=CCCC1
5. O=C(O)c1cn(-c2ccc(F)cc2)c(C=Cc2ccncc2)cc1=O
6. O=C(O)c1cn(-c2ccc(F)cc2)c(-c2cc3ccccc3s2)cc1=O

Output:
0.39
0.39
0.39
0.78
0.78
1.56

Input: I would be grateful if you could share the reported MIC for CN(C)c1ccc(-c2cc(=O)c(C(=O)O)cn2-c2cccc3c(O)cccc23)cc1 .
Output: 1.56

====

Can you tell me MIC for the items I'm about to list?
System: Pro. vulgaris GN3027
EXPERIMENT_DESCRIPTION: Antibacterial activity (MIC), agar dilution
Type: cell-based
MEASUREMENT_CONTEXT: Proteus vulgaris, GN3027, 20 h, Pro. vulgaris GN3027; 10^6 cells per ml; 37° C., 20 hours; read-out: MIC
One number for each entry, in mg/L.

Sample records with MIC:
COc1ccc(-c2ccc(-c3cc(=O)c(C(=O)O)cn3-c3ccc(O)cc3)cc2)s1 = 0.2
CNc1ccc(-c2cc(=O)c(C(=O)O)cn2-c2ccc(O)cc2)cc1C = 0.39
CN1CCCc2cc(-c3cc(=O)c(C(=O)O)cn3-c3ccc(O)cc3)ccc21 = 0.78
Cn1ccc2cc(-c3cc(=O)c(C(=O)O)cn3-c3ccc(F)cc3)ccc21 = 0.2

Answer for every listed entry: what is its MIC? The entries follow.
1. Cc1nc(-c2ccc(-c3cc(=O)c(C(=O)O)cn3-c3ccc(O)cc3C)cc2)cs1
2. Cc1cc(O)ccc1-n1cc(C(=O)O)c(=O)cc1CCc1ccccc1
3. Cc1cc(O)ccc1-n1cc(C(=O)O)c(=O)cc1C1CC2C=CC1C2 (stereo not shown)
4. O=C(O)c1cn(-c2ccc(F)cc2)c(C=Cc2ccncc2)cc1=O

Output:
[0.39, 0.1, 0.78, 0.2]

====

Tested on: Ps. aeruginosa GN918**
EXPERIMENT_DESCRIPTION: Antibacterial activity (MIC), agar dilution
Format: cell-based
MEASUREMENT_CONTEXT: Pseudomonas aeruginosa, GN918, 20 h, Ps. aeruginosa GN918, cephalospolinase-producing; 10^6 cells per ml
MEASUREMENT_LABEL: MIC (µg/mL)
Give bare numbers, in µg/mL.

Sample records with MIC:
O=C(O)c1cn(-c2ccc(O)cc2)c(-c2ccc(-c3ccccc3)s2)cc1=O = 1.56
O=C(O)c1cn(-c2ccc(O)cc2)c(-c2ccc3occc3c2)cc1=O = 1.56
CC(=O)Oc1ccc(-n2cc(C(=O)OCCN(C)C)c(=O)cc2-c2ccc(N(C)C)cc2)cc1 [drawing 38] = 3.13
CN1CCOc2cc(-c3cc(=O)c(C(=O)O)cn3-c3ccc(O)cc3F)ccc21 = 3.13

Input: I would be grateful if you could share the reported MIC for COCOC(=O)c1cn(-c2ccc(O)cc2)c(-c2ccc(N(C)C)cc2)cc1=O .
Output: 3.13

====

Tested on: Ps. aeruginosa GN918**
EXPERIMENT_DESCRIPTION: Antibacterial activity (MIC), agar dilution
Assay type: cell-based
MEASUREMENT_CONTEXT: Pseudomonas aeruginosa, GN918, 20 h, Ps. aeruginosa GN918, cephalospolinase-producing; 10^6 cells per ml
MEASUREMENT_LABEL: MIC (µg/mL)
Give bare numbers, in µg/mL.

Sample records with MIC:
Nc1ccc(-c2cc(=O)c(C(=O)O)cn2-c2ccc(F)cc2)cc1 = 3.13
CC(=O)Oc1ccc(-n2cc(C(=O)O)c(=O)cc2-c2ccc(-c3cccs3)cc2)cc1 = 1.56

Then this molecule:
Input: I would be grateful if you could share the reported MIC for CN1CCc2cc(-c3cc(=O)c(C(=O)O)cn3-c3ccc(O)cc3)ccc21 .
Output: 1.56

====

Tested on: Ps. aeruginosa IFO3445
EXPERIMENT_DESCRIPTION: Antibacterial activity (MIC), agar dilution
Type: cell-based
MEASUREMENT_CONTEXT: Pseudomonas aeruginosa; Ps. aeruginosa IFO3445; 10^6 cells per ml; 37° C., 20 hours; read-out: MIC
MEASUREMENT_LABEL: MIC

Sample records with MIC:
O=C(O)c1cn(-c2ccc(F)cc2)c(/C=C/c2ccccc2)cc1=O = 50 µg/mL
CN(C)c1ccc(-c2cc(=O)c(C(=O)O)cn2-c2ccc(F)cc2F)cc1 = 12.5 µg/mL
O=C(O)c1cn(-c2ccc(O)cc2)c(-c2ccc(-n3cccn3)cc2)cc1=O = 6.25 µg/mL
CN1CCCc2cc(-c3cc(=O)c(C(=O)O)cn3-c3ccc(O)cc3)ccc21 = 12.5 µg/mL
O=C(O)c1cn(-c2ccc(O)cc2)c(-c2ccc(-n3cccc3)cc2)cc1=O = 3.13 µg/mL
O=C(O)c1cn(-c2ccc(O)cc2F)c(-c2ccc(N3CCCC3)cc2)cc1=O = 6.25 µg/mL
CN(C)c1ccc(-c2cc(=O)c(C(=O)O)cn2-c2cccc(O)c2)cc1 = 12.5 µg/mL
CNc1ccc(-c2cc(=O)c(C(=O)O)cn2-c2ccc(F)cc2)cc1C = 50 µg/mL
COc1ccc(-c2ccc(-c3cc(=O)c(C(=O)O)cn3-c3ccc(O)cc3)cc2)s1 = 6.25 µg/mL

Input: Entry CN(C)c1ccc(-c2cc(=O)c(C(=O)O)cn2-c2ccccc2F)cc1 , system Ps. aeruginosa IFO3445: what MIC was measured?
Output: > 100 µg/mL

====

Test system: E. coli TK-111
EXPERIMENT_DESCRIPTION: Antibacterial activity (MIC), agar dilution
Type: cell-based
MEASUREMENT_CONTEXT: Escherichia coli, TK111, 20 h, E. coli TK-111; 10^6 cells per ml; 37° C., 20 hours; read-out: MIC
Returns: string. Value is Criterion met if measured MIC is below 0.4 µg/mL, and Criterion not met if it is greater than or equal to it.

Reference set (6 entries):
O=C(O)c1cn(-c2ccc(F)cc2)c(-c2ccc(Br)s2)cc1=O = Criterion not met
CC(=O)Oc1ccc(-n2cc(C(=O)OCC(O)CO)c(=O)cc2-c2ccc(N(C)C)cc2)cc1 (stereo not drawn) = Criterion not met
O=C(O)c1cn(-c2ccc(O)cc2)c(-c2cc3ccccc3s2)cc1=O = Criterion met
CN(C)c1ccc(-c2cc(=O)c(C(=O)O)cn2-c2ccc(OS(=O)(=O)O)cc2)cc1 = Criterion not met
O=C(O)c1cn(-c2ccc(F)cc2)c(-c2cc3ccccc3s2)cc1=O = Criterion not met
COc1ccc(-c2ccc(-c3cc(=O)c(C(=O)O)cn3-c3ccc(O)cc3)s2)cc1 = Criterion met

Input: In the record for CN1CCc2cc(-c3cc(=O)c(C(=O)O)cn3-c3ccc(O)cc3)ccc21 , is MIC less than 0.4 µg/mL?
Output: Criterion met

Input: In the record for CN1CCOc2cc(-c3cc(=O)c(C(=O)O)cn3-c3ccc(O)cc3F)ccc21 , is MIC less than 0.4 µg/mL?
Output: Criterion met

Input: In the record for CN(C)c1ccc(-c2cc(=O)c(C(=O)O)cn2-c2ccc(O)cc2F)cc1 , is MIC less than 0.4 µg/mL?
Output: Criterion met

Input: In the record for COCOC(=O)c1cn(-c2ccc(O)cc2)c(-c2ccc(N(C)C)cc2)cc1=O , is MIC less than 0.4 µg/mL?
Output: Criterion met

====

Tested on: E. coli TK-3*
EXPERIMENT_DESCRIPTION: Antibacterial activity (MIC), agar dilution
Format: cell-based
MEASUREMENT_CONTEXT: Escherichia coli, 20 h
Source text: The amount of bacteria inoculated was 10^4 cells per plate (10^6 cells per ml). * Penicillinase-producing bacteria
Can you tell me MIC for the items I'm about to list?
Give bare numbers, in µg/mL.

Sample records with MIC:
Cc1cc(O)ccc1-n1cc(C(=O)O)c(=O)cc1C1=CCCC1 = 1.56
Nc1ccc(-c2cc(=O)c(C(=O)O)cn2-c2ccc(O)cc2)cc1 = 3.13
Cc1nc(-c2ccc(-c3cc(=O)c(C(=O)O)cn3-c3ccc(F)cc3)cc2)cs1 = 3.13
Cc1ccc(-c2cc(=O)c(C(=O)O)cn2-c2ccc(F)cc2)s1 = 3.13
O=C(O)c1cn(-c2ccc(F)cc2)c(/C=C/c2ccccc2)cc1=O = 12.5

Answer for every listed entry: what is its MIC? The entries follow.
1. CN1CCCc2cc(-c3cc(=O)c(C(=O)O)cn3-c3ccc(O)cc3)ccc21
2. COc1ccc(-c2cc(=O)c(C(=O)O)cn2-c2ccc(F)cc2)cc1
3. CN(C)c1ccc(-c2cc(=O)c(C(=O)O)cn2-c2ccccc2F)cc1
4. O=C(O)c1cn(-c2ccc(F)cc2)c(-c2cc3ccccc3s2)cc1=O
5. CN(C)c1ccc(-c2cc(=O)c(C(=O)O)cn2-c2ccc(F)cc2O)cc1

Output:
1: 1.56; 2: 3.13; 3: 3.13; 4: 3.13; 5: 1.56

Input: I would be grateful if you could share the reported MIC for O=C(O)c1cn(-c2ccc(O)cc2)c(C2CC=CCC2)cc1=O (centres unmarked) .
Output: 6.25
